Hello, the source for this data is ChEMBL document CHEMBL6074675, in case you need it.

- EXPERIMENTAL PROTOCOL: Half life in C57BL/6 mouse at 40 mg/kg, ip
- Format: ADME, organism-based
- CONDITION DESCRIPTION: in vivo
READOUT LABEL: half-life (h)
Please respond with the number in h and leave the unit unwritten.

Determine its reported half-life: CSc1ncccc1C(=O)Nc1nc(-c2cccc(Nc3ccc(C#N)cc3)c2)cs1 3.52

----------
- EXPERIMENTAL PROTOCOL: Cytotoxicity against human NHDF cells deficient of IRF3 assessed as reduction in cell viability incubated for 72 hrs by CellTiter Glo luminescence assay
- Format: toxicity, cell-based
READOUT LABEL: CC50 at 72 h

Supply recorded CC50 at 72 h for CC(C)(C)c1ncc(C(=O)Nc2nc(-c3ccc4ccccc4c3)cs2)s1 here. > 30 µM

Could you please provide reported CC50 at 72 h for CSc1ncccc1C(=O)Nc1nc(-c2cccc(-c3ccccc3)c2)cs1 ? Thanks! > 30 µM

Please supply the value of reported CC50 at 72 h for the item CSc1ncccc1C(=O)Nc1nc(-c2ccc3ncccc3c2)cs1 18 µM

For the compound CSc1ncccc1C(=O)Nc1nc(-c2cccc(-c3ccccn3)c2)cs1 , give its reported CC50 at 72 h. > 30 µM

# return recorded CC50 at 72 h for input CCOC(=O)N1CCN(c2cc(-c3ccc(C#N)cc3)cc(-c3csc(NC(=O)c4cccnc4SC)n3)c2)CC1 > 40 µM

Using known records, supply CC50 at 72 h for CSc1ncccc1C(=O)Nc1nc(-c2cccc(-c3ccc(C#N)c(O)c3)c2)cs1 > 30 µM

Entry CSc1ncccc1C(=O)Nc1nc(-c2cccc(-c3cccc(C#N)c3)c2)cs1 needs its CC50 at 72 h filled in; supply it. > 30 µM

Provide only the value of recorded CC50 at 72 h for CSc1ncccc1C(=O)Nc1nc(-c2cccc(-c3ccc(C#N)cc3)c2)cs1 > 30 µM

# return recorded CC50 at 72 h for entry CSc1ncccc1C(=O)Nc1nc(-c2cccc(Nc3ccc(C#N)cc3)c2)cs1 > 30 µM

Tell us which CC50 at 72 h value is on record for CSc1ncccc1C(=O)Nc1nc(-c2cc(Nc3ccc(C#N)cc3)cc(N3CCOCC3)c2)cs1 > 40 µM
